Hello, the source for this data is patent US20180110824A1, in case you need it.

Recorded Ki for the following compounds
target: human growth hormone secretagogue receptor (hGHS-R1a) (Homo sapiens, UniProt Q92847); construct: purchased PerkinElmer BioSignal #RBHGHSM; host or cells: HEK-293, stably transfected; test: Competitive radioligand binding assay (ghrelin receptor), [125I]-ghrelin displacement on GHS-R/HEK 293 membranes; conditions: Table 4; TFA salts unless otherwise noted; read-out: Ki
Sequence (Q92847 whole entry): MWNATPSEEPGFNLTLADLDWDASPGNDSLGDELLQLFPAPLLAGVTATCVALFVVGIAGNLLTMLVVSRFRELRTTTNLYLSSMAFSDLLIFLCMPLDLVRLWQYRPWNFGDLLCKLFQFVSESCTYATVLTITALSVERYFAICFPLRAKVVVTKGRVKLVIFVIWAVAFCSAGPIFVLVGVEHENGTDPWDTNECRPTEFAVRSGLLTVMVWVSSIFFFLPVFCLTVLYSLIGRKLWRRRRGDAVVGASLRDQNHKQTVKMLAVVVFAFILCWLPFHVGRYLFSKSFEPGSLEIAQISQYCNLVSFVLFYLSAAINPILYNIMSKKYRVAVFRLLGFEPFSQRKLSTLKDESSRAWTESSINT

Can you look up the measured Ki of CC(C)C[C@@H]1NCCOc2ccccc2/C=C/CNC(=O)[C@H](CC(C)C)NC(=O)C2(CCCC2)NC1=O for me? 100 to 1000 nM

Can you look up the measured Ki of C[C@@H]1C(=O)N[C@H](Cc2ccc(Cl)cc2)C(=O)NCCCc2ccccc2OCCN[C@@H](C2CC2)C(=O)N1C for me? 0.1 to 10 nM

Can you look up the measured Ki of CCC(C)[C@@H]1NCCOc2ccccc2CCCNC(=O)[C@@H](Cc2ccc(OC)cc2)NC(=O)[C@@H](C)N(C)C1=O (stereo partly drawn) for me? 0.1 to 10 nM

Can you look up the measured Ki of CC1CNC(C2CC2)C(=O)N(C)C(C)C(=O)NC(Cc2ccc(F)cc2)C(=O)NCCCc2ccccc2O1 (stereo not drawn) for me? 10 to 100 nM

Can you look up the measured Ki of CCC[C@@H]1NCCOc2ccccc2CCCNC(=O)[C@@H](Cc2ccccc2)NC(=O)CN(CC)C1=O for me? 100 to 1000 nM

Others:
Can you look up the measured Ki of CCC(C)[C@@H]1NCCOc2ccccc2/C=C/CNC(=O)[C@H](Cc2cccc(Cl)c2)NC(=O)C2(CCCC2)NC1=O (stereo partly drawn) [345a] for me? 10 to 100 nM

---

Recorded Ki for the following compounds
biological target: human growth hormone secretagogue receptor (hGHS-R1a) (Homo sapiens, UniProt Q92847); construct: purchased PerkinElmer BioSignal #RBHGHSM; host or cells: HEK-293, stably transfected; test: Competitive radioligand binding assay (ghrelin receptor), [125I]-ghrelin displacement on GHS-R/HEK 293 membranes; settings: Binding activity at the human ghrelin receptor, [125I]-ghrelin displacement; read-out: Ki

Can you look up the measured Ki of CCC(C)[C@@H]1NC[C@@H](C)Oc2ccccc2CCCNC(=O)[C@@H](Cc2ccccc2)NC(=O)[C@@H](C)N(C)C1=O (stereo partly shown) [compound 35] for me? 10 to 100 nM

Can you look up the measured Ki of CCCC1NCCOCCNC(=O)C(Cc2ccccc2)NC(=O)CN(C)C1=O (stereo not shown) for me? > 10000 nM

Can you look up the measured Ki of CCC[C@@H]1NCCOc2ccccc2CCCNC(=O)[C@@H](Cc2ccccc2)NC(=O)C2(CCCC2)NC1=O for me? 100 to 1000 nM

Okay, next one:
Can you look up the measured Ki of CC(C)C[C@@H]1NCc2ccccc2Sc2ccccc2CNC(=O)[C@H](Cc2ccccc2)NC(=O)C2(CCCC2)NC1=O for me? 1000 to 10000 nM
